experimental.system: human TREX2 (residues M44-A279) (Homo sapiens, UniProt Q9BQ50)
Construct: human TREX2 (residues M44-A279, expressed in E. coli); His-Tev (His tag with TEV protease site) (N)
Sequence (Q9BQ50 whole entry, the tested form may be a part): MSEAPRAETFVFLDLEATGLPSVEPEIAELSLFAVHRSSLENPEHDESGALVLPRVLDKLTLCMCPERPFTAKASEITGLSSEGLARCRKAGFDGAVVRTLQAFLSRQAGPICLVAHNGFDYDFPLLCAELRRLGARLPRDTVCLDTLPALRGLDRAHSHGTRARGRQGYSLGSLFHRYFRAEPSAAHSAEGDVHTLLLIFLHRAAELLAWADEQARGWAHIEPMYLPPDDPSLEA
assay.remarks: TREX2 Biochemical Assay (fluorescence assay, degradation of dsDNA substrate)
measurement.conditions: 2.5 nM TREX2, 60 nM dsDNA substrate, 25 minutes at room temperature; read-out: hTREX2 EC50
pEC50: −log10 of the molar value.
Please go through the items and note down their pEC50.

Example entries begin here.
[
  {
    "compound": "O=C(c1cccc(F)c1)N(Cc1ccc(CO)nc1)Cc1ccc(Cl)cc1Cl [Compound 145]",
    "pEC50": "4.00 to 5.00"
  },
  {
    "compound": "O=C(c1cccc(Oc2ccccc2)c1)N(Cc1cccnc1)Cc1ccc(Cl)cc1Cl [Compound 31]",
    "pEC50": "< 4.00"
  },
  {
    "compound": "O=C(c1ccc(Oc2ccc(Cl)cc2)cc1)N(Cc1cccnc1)Cc1cc(Cl)cc(Cl)c1 [Compound 59]",
    "pEC50": "< 4.00"
  },
  {
    "compound": "COc1cc(C(=O)N(Cc2cccnc2)Cc2cc(Cl)cc(Cl)c2)cc(Br)c1OC [Compound 47]",
    "pEC50": "< 4.00"
  },
  {
    "compound": "O=C(c1cccc(F)c1)N(Cc1cccnc1)Cc1ccccc1F [Compound 129]",
    "pEC50": "< 4.00"
  }
]

Count: 6. Required value per item: pEC50.
1. O=C(c1ccc(CO)cc1)N(Cc1cccnc1)Cc1cc(Cl)cc(Cl)c1 [Compound 64]
2. NC(=O)c1ccc(CN(Cc2ccc(Cl)cc2Cl)C(=O)c2cccc(F)c2)cn1 [Compound 143]
3. Cc1cccc(CN(Cc2cccnc2)C(=O)c2cccc(F)c2)c1Cl [Compound 135]
4. NC(=O)c1ccc(CN(Cc2cccc(Cl)c2Cl)C(=O)c2cc(F)cc(F)c2)cn1 [Compound 150]
5. O=C(c1ccc(F)c(Cl)c1)N(Cc1cccnc1)Cc1ccc(Cl)cc1Cl [Compound 19]
6. O=C(c1ccccc1N1CCCCC1)N(Cc1cccnc1)Cc1ccc(Cl)cc1Cl [Compound 42]

[reply]
< 4.00
< 4.00
4.00 to 5.00
< 4.00
< 4.00
< 4.00

Here are 3 compounds. What values of pEC50 were reported for them?
1. O=C(c1ccon1)N(Cc1cccnc1)Cc1ccc(Cl)cc1Cl [Compound 118]
2. C[C@@H](c1cccnc1)N(Cc1ccc(Cl)cc1Cl)C(=O)c1cccc(F)c1 (single isomer, unassigned) [Compound 154]
3. CC[C@@H](c1cccc(Cl)c1Cl)N(Cc1cnc(C(=O)O)c(N)c1)C(=O)c1cc(F)cc(F)c1 [Compound 236]

[reply]
1: < 4.00; 2: < 4.00; 3: > 6.00

For every listed record, write down its pEC50.
1. CC[C@H](c1cccc(Cl)c1Cl)N(Cc1cnc(C(=O)O)c(N)c1)C(=O)c1cc(F)cc(F)c1 [Compound 239]
2. NCC[C@H](c1cccc(Cl)c1Cl)N(Cc1cccnc1)C(=O)c1cc(F)cc(F)c1 [Compound 238]
3. Cc1cc(C(=O)N(Cc2cccnc2)Cc2cc(Cl)cc(Cl)c2)ccc1Br [Compound 78]

[reply]
["5.00 to 6.00", "4.00 to 5.00", "< 4.00"]

---

experimental.system: full length human TREX1 (Homo sapiens, UniProt Q9NSU2)
Construct: N-terminally His-Tev tagged full length human TREX1; His-Tev (His tag with TEV protease site) (N)
assay.remarks: TREX1 Biochemical Assay (fluorescence assay, degradation of dsDNA substrate)
measurement.conditions: 150 pM TREX1, 60 nM dsDNA substrate, 25 minutes at room temperature; read-out: hTREX1 EC50
pEC50: −log10 of the molar value.
For each record, write down the corresponding pEC50.

[
  {
    "compound.structure": "O=C(c1ccc(Br)cc1Cl)N(Cc1cccnc1)Cc1cc(Cl)cc(Cl)c1",
    "pEC50": "< 5.00"
  },
  {
    "compound.structure": "Cc1noc(C)c1C(=O)N(Cc1cccnc1)Cc1ccc(Cl)cc1Cl",
    "pEC50": "< 5.00"
  },
  {
    "compound.structure": "O=C(c1cc(Br)c(O)c(Br)c1)N(Cc1cccnc1)Cc1ccc(Cl)cc1Cl",
    "pEC50": "< 5.00"
  }
]

# batch size: 5; output pEC50 per entry
1. NC(=O)c1ccc(CN(Cc2ccc(Cl)cc2Cl)C(=O)c2cccc(F)c2)cn1
2. O=C(O)c1ccc(CN(Cc2ccnc(Cl)c2Cl)C(=O)c2cc(F)cc(F)c2)cn1
3. O=C(c1cnco1)N(Cc1cccnc1)Cc1ccc(Cl)cc1Cl
4. Cn1ncc(CN(Cc2ccc(C(=O)O)nc2)C(=O)c2cc(F)cc(F)c2)c1Cl
5. COC(=O)CC[C@H](c1ccccc1Cl)N(Cc1cccnc1)C(=O)c1cc(F)cc(F)c1

[reply]
1: < 5.00; 2: > 7.00; 3: < 5.00; 4: 6.00 to 7.00; 5: 5.00 to 6.00

---

experimental.system: full length human TREX1 (Homo sapiens)
Construct: N-terminally His-Tev tagged full length human TREX1; His-Tev (His tag with TEV protease site) (N)
Sequence (Q9NSU2 1-314): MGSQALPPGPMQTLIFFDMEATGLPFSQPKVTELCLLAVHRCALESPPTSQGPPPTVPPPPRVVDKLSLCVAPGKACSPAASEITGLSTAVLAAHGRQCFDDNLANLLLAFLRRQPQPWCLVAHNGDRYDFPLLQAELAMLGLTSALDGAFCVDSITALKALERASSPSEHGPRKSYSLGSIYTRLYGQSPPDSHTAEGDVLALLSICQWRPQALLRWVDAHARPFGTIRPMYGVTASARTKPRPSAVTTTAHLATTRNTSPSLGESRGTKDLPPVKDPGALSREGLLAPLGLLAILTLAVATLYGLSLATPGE
assay.remarks: TREX1 Biochemical Assay (fluorescence assay, degradation of dsDNA substrate)
measurement.conditions: 150 pM TREX1, 60 nM dsDNA substrate, 25 minutes at room temperature; read-out: hTREX1 EC50
Would you mind telling me the reported EC50 of each entry?

[
  {
    "compound": "O=C(c1cccc(F)c1)N(Cc1cnc2ccccc2c1)Cc1ccc(Cl)cc1Cl [Compound 109]",
    "val": "> 10 µM"
  },
  {
    "compound": "COc1cc(C(=O)N(Cc2cccnc2)Cc2cc(Cl)cc(Cl)c2)cc(Cl)c1O [Compound 67]",
    "val": "> 10 µM"
  },
  {
    "compound": "N#Cc1ccccc1CN(Cc1ccc(C(=O)O)nc1)C(=O)c1cc(F)cc(F)c1 [Compound 192]",
    "val": "> 10 µM"
  }
]

Please give EC50, item by item, for the list that follows.
1. O=C(c1cc(F)ccc1F)N(Cc1cccnc1)Cc1ccc(Cl)cc1Cl [Compound 122]
2. O=C(O)CC[C@@H](c1ccccc1Cl)N(Cc1cccnc1)C(=O)c1cc(F)cc(F)c1 [Compound 244]

[reply]
1: > 10 µM; 2: < 0.1 µM

Batch request: EC50 per item, same order as input.
1. COCC(=O)N(Cc1cccnc1)Cc1ccc(Cl)cc1Cl [Compound 92]
2. N#CC[C@@H](c1cccc(Cl)c1Cl)N(Cc1cccnc1)C(=O)c1cc(F)cc(F)c1 [Compound 234]
3. O=C(C1CC1)N(Cc1cccnc1)Cc1ccc(Cl)cc1Cl [Compound 81]
4. O=C(c1cccc(Oc2ccccc2)c1)N(Cc1cccnc1)Cc1cc(Cl)cc(Cl)c1 [Compound 66]
5. O=C(c1ccc(Br)cc1)N(Cc1cccnc1)Cc1ccc(Cl)cc1Cl [Compound 6]

[reply]
1. > 10 µM
2. 1 to 10 µM
3. > 10 µM
4. > 10 µM
5. 1 to 10 µM

For every item in the list below, what is its measured EC50?
1. C[C@@H](c1cccnc1)N(Cc1ccc(Cl)cc1Cl)C(=O)c1cccc(F)c1 (single isomer, unassigned) [Compound 154]
2. O=C(c1ccccc1)N(Cc1cccnc1)Cc1ccc(Cl)cc1Cl [Compound 2]
3. Cn1cc(CN(Cc2ccc(Cl)cc2Cl)C(=O)c2cccc(F)c2)cn1 [Compound 112]
4. NCCC[C@@H](c1cccc(Cl)c1Cl)N(Cc1cccnc1)C(=O)c1cc(F)cc(F)c1 [Compound 248]
5. O=C(c1cc(F)cc(F)c1)N(Cc1cnccc1Cl)Cc1cnccc1Cl [Compound 176]

[reply]
1. > 10 µM
2. 1 to 10 µM
3. > 10 µM
4. < 0.1 µM
5. 0.1 to 1 µM

Hi, could you look up EC50 for each item in my list?
1. CC(C)Oc1ccc(C(=O)N(Cc2cccnc2)Cc2cc(Cl)cc(Cl)c2)cc1 [Compound 54]
2. N#CCC[C@H](c1ccccc1Cl)N(Cc1cccnc1)C(=O)c1cc(F)cc(F)c1 [Compound 178]

[reply]
1. > 10 µM
2. 1 to 10 µM
